target: Luciferin 4-monooxygenase (Photinus pyralis) (UniProt P08659); experiment: qHTS assay to identify small molecule inhibitors of firefly luciferase (AID 1224835); also: nearly all actives have a fitted effect of over 25% in size; details: purified P. pyralis luciferase, luminescence inhibition; series mostly up to 115 µM
Sequence (P08659 whole entry, looked up): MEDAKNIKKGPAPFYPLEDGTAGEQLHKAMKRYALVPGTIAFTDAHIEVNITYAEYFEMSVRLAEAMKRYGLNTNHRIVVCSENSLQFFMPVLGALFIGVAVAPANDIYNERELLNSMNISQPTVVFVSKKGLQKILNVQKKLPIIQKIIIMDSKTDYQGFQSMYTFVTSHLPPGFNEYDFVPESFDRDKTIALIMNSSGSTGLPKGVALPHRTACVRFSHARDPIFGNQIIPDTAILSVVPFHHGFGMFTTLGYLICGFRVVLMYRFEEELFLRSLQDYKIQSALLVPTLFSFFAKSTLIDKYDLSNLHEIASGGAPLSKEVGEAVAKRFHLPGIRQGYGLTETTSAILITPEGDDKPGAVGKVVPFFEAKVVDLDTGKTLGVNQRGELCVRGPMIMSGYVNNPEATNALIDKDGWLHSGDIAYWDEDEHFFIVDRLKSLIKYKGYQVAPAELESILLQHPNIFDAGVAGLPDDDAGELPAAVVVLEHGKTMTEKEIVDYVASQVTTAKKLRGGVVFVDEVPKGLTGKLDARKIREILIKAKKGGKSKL
Records with an inconclusive call do not appear. Active and inactive are the calls of the source. Calls follow the shape of the dose curve; as a rule, active = well fitted inhibition curve with a large enough effect in the repeat runs; inconclusive = weak or mixed curves; inactive = flat fitted curve, though single readings scatter.
Your reply should match one of these outcome classes. active, inactive

compound	class-name
CCCCc1ccc2nc(NC(=O)OC)[nH]c2c1	active
CCN(CC)CCOc1ccc(Cc2ccccc2)cc1	inactive
CCCCOc1cc(C(=O)NCCN(CC)CC)c2ccccc2n1	inactive
CC/C=C\CCOC(=O)C(C)C	inactive
CC1=CC(=O)CC(C)(C)C1=O	inactive

Q: What call does the record list for COc1ccc2nc(NC(=O)Nc3ccccc3)sc2c1 ?
A: active

Q: # lookup: test call for CCCCNc1ccc(C(=O)OCCN(CC)CC)cc1
A: inactive

Q: Tell me the assay call for COc1ccc(S(=O)(=O)Nc2nnc(CC(C)C)s2)cc1 please.
A: inactive

Q: // param item: CC1=C(O)C(=O)OC1C (centres undefined) ; yields the recorded call
A: inactive

Q: What did the test return for COC(=O)/C=C(/C)N ?
A: inactive

Q: Name the outcome recorded for CC(C)(C)C1CCCCC1=O (centres undefined) in the assay.
A: inactive

Q: Hello, I am checking results. What call was entered for C=CCc1cc(OC)c(O)c(C(=O)NCCO)c1 ?
A: inactive

Q: What call does the record list for CC1(O)CSC(C)(O)CS1 (centres undefined) ?
A: inactive

Q: Each compound tested received a call. Report the one for FC(F)(F)c1ccccc1 .
A: inactive

Q: Recorded call for CC1=C(CC(=O)O)c2cc(F)ccc2/C1=C\c1ccc(S(C)(=O)=O)cc1 ?
A: inactive

---

molecular target: Cytochrome P450 2D6 (Homo sapiens) (UniProt P10635); experiment: Cytochrome P450 Family 2 Subfamily D Member 6 (CYP2D6) small molecule antagonists: luciferase reporter qHTS assay (AID 1671196); details: P450-Glo CYP2D6 enzyme assay, luciferin luminescence, 1 h; series mostly up to 115 µM; also: nearly all actives have a fitted effect of over 50% in size
Sequence (P10635 whole entry, looked up): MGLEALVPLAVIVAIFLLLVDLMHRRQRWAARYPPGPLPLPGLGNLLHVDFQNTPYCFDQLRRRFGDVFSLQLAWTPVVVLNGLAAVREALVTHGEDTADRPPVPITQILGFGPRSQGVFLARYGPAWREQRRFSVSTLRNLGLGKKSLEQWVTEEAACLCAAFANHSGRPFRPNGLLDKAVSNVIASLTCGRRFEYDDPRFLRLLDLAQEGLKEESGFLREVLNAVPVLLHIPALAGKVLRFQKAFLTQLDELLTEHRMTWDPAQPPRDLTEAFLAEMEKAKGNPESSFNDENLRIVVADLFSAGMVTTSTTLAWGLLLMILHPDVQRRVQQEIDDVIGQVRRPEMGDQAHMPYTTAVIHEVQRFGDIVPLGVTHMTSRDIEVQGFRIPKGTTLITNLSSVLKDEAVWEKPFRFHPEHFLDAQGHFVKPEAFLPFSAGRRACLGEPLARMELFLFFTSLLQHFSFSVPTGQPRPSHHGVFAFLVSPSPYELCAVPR
Results filed as inconclusive are left out. Active and inactive are the calls of the source. Calls follow the shape of the dose curve; as a rule, active = well fitted inhibition curve with a large enough effect in the repeat runs; inconclusive = weak or mixed curves; inactive = no such curve, though single readings can be large or run the other way.
Write down one outcome, taken from t (active), f (inactive)

molecule	class-name
C[C@]12C(=O)OC(=O)[C@H]1[C@H]1C=C[C@@H]2C1	f
CCC(=O)c1ccc2c(c1)N(CCCN(C)C)c1ccccc1S2	t
CN(C)Cc1ccccc1	t

Q: What was the test verdict on Cn1cnc2c(F)c(Nc3ccc(Br)cc3Cl)c(C(=O)NOCCO)cc21 ?
A: f

Q: Hi team, can someone confirm the assay call for NNS(=O)(=O)c1ccc(Oc2ccc(S(=O)(=O)NN)cc2)cc1 ?
A: f

Q: Tell me the assay call for CCOC(=O)NCCC[Si](OCC)(OCC)OCC please.
A: f

Q: # lookup: test call for CC(C)OC(C)C
A: f

Q: Hello, I am checking results. What call was entered for CCOc1ccccc1N ?
A: t

Q: Dear all, I need the recorded test outcome for CN1C(=O)CC(c2ccccc2)C1=O (centres undefined) , thank you.
A: f

Q: Which outcome did this test record for the molecule O=C(O)c1ccccc1Nc1cc(Cl)ccc1C(=O)O ?
A: t

---

molecular target: Cytochrome P450 2C19 (Homo sapiens) (UniProt P33261); experiment: Cytochrome P450 Family 2 Subfamily C Member 19 (CYP2C19) small molecule antagonists: luciferase reporter qHTS assay (AID 1671197); settings: P450-Glo CYP2C19 enzyme, luciferin luminescence, 1 h; series mostly up to 115 µM; also: nearly all actives have a fitted effect of over 65% in size
Sequence (P33261 whole entry, looked up): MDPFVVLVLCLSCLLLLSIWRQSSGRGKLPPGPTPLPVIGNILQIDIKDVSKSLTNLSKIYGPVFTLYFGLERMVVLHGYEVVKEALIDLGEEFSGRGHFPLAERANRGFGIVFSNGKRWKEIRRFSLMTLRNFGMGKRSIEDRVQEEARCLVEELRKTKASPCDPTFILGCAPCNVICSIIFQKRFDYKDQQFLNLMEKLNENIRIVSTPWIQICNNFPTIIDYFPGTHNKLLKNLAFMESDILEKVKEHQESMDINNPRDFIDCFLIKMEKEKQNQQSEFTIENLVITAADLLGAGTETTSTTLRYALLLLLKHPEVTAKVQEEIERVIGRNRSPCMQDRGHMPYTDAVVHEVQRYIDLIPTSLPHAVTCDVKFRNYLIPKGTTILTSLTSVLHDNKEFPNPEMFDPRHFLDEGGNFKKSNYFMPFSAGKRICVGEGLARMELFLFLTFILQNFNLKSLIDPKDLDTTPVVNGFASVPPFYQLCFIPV
Records with an inconclusive call do not appear. Calls of active or inactive are those of the source. Calls come from the whole dose curve; as a rule, active = well fitted inhibition curve with a large enough effect in the repeat runs; inconclusive = weak or mixed curves; inactive = no such curve, though single readings can be large or run the other way.
Write down one outcome, taken from True (active), False (inactive)

molecule	class-name
OCc1c2ccccc2cc2ccccc12	True
CC[C@H]1CC[C@H](NCc2cc3c(cc2OC)[C@H]2C[C@H]2C(=O)N3C)[C@H](c2ccccc2)N1	False
C1CSCCS1	False
Cc1c(-c2ccccc2)oc2c(C(=O)OCCN3CCCCC3)cccc2c1=O	False
FC(F)(F)C(F)(F)C(F)(F)C(F)(F)C(F)(F)C(F)(F)C(F)(F)C(F)(F)Br	False
CCC(=O)c1ccc2c(c1)N(CCCN(C)C)c1ccccc1S2	True

Q: Assay outcome for C[C@]12C(=O)OC(=O)[C@H]1[C@H]1C=C[C@@H]2C1 : what was it?
A: False

Q: Write down the call the test reported for this molecule. Item: CC(C)CC(=O)OCc1ccccc1
A: False

Q: Lab log entry: CC(C)c1ccccc1 — outcome as called in the assay?
A: False

Q: Which outcome was entered for the molecule O=Cc1ccc(F)c(Br)c1 in this test?
A: False

Q: Short answer needed: outcome of this test for CC(C)CCCCCCc1ccc(OCCOCCO)cc1 ?
A: False

Q: Write down the call the test reported for this molecule. Item: COC(=O)c1ccc(OC)cc1
A: False

Q: What did this assay record as the result for NC(=O)Cc1cccc(C(=O)c2ccccc2)c1N ?
A: True

Q: Hey, what did the test say about O=C1Nc2ccc([N+](=O)[O-])cc2C1=O ?
A: True

Q: Assay outcome for O=C(O)[C@@H]1CSCN1 : what was it?
A: False

Q: Dear colleague, could you share the recorded outcome for CCCc1c2oc(C(=O)O)cc(=O)c2cc2c(=O)cc(C(=O)O)n(CC)c12 when you have a moment?
A: False

Q: # lookup: test call for CN(C)Cc1ccccc1
A: False
